# Test system: MOLM14;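 note: after 48 h exposure read by CellTiter-Glo luminescence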
# PROCEDURE_SUMMARY: cell viability relative to vehicle control; higher = less cytotoxic
# APPLIED_CONDITIONS: 10 µM; SRSF2 genotype: SRSF2 wt/wt
METRIC: cell viability (%)
Give bare numbers, in %.

Previously resolved entries follow.
{"COMPOUND": "COc1cc2ncnc(Nc3ccc(Cl)cc3F)c2cc1OC", "cell viability, %": 96.1}
{"COMPOUND": "O=C(O)c1cc(I)ccc1NC(=O)[C@H](Cc1ccccc1)NCc1ccccc1", "cell viability, %": 101}
{"COMPOUND": "CC(=O)O[C@]1(C(C)=O)CC[C@H]2[C@@H]3C=C(C)C4=CC(=O)CC[C@]4(C)[C@H]3CC[C@@]21C [Megestrol Acetate]", "cell viability, %": 87.6}
{"COMPOUND": "Nc1ccc(S(N)(=O)=O)cc1 [Sulfanilamide]", "cell viability, %": 102}
{"COMPOUND": "Oc1ccc(-c2nc(-c3ccc(F)cc3)c(-c3ccncc3)[nH]2)cc1", "cell viability, %": 97.3}
{"COMPOUND": "O=S(=O)(N=Cc1c(O)ccc2ccccc12)c1cccs1", "cell viability, %": 99}
{"COMPOUND": "CC1CNC(=O)NC1=O (stereo not given) [Dihydrothymine]", "cell viability, %": 103}
{"COMPOUND": "O=c1cc(N2CCOCC2)oc2c(-c3ccc4c(c3)OCCO4)csc12", "cell viability, %": 18.2}
{"COMPOUND": "Cc1cc(CN2CCN(c3c(Br)cnc4nc(-c5ccc(N6CCN(C)CC6)cc5)[nH]c34)CC2)no1", "cell viability, %": 0.62}

Next item in the queue.
Q: Determine from records and report cell viability for Cn1sc(=O)n(Cc2ccccc2)c1=O
Result: 0.54
